# tgt: T1, antibody raised against ETAG
# T1 construct: read-out of display; also called E-tag antibody; E tag antibody
# protocol.text: phage ELISA, 405 nm; anti-E-tag antibody coated
# Protocol: For analysis of individual target binders, colonies were picked and phage prepared as described above using helper phage, M13KO7. Ninety-six-well microtiter plates were coated with 500 ng/well of specific target protein, 500 ng/well lactate dehydrogenase (LDH) irrelevant or non-specific target, 500 ng/well of positive control antibody raised against ETAG, and negative control of non-fat milk powder-PBS 2% at 4° C. overnight. […] Plates were analyzed at 405 nm. […]
For each of the binders below, state its ETAG (OD).

Working through the 6 binders below one at a time, give ETAG (OD) for each.
1. GSVLERGCLEFSGFCFSLGHAAAGAPVPYPDPLEPRP (not shown: phage gene III coat protein (pCANTAB5E)) [DGI-2-20F-3-C1]
2. DGI-2-40F-3-B122 (not shown: phage gene III coat protein (pCANTAB5E)) peptide: HSGNRQSGSRRTHLLNIFCSSDTFVFPGWSAYLSRVCPGDAAAGAPVPYPDPLEPRP
3. DGI-2-40F-3-A1 (SEQ ID NO: 187) (not shown: phage gene III coat protein (pCANTAB5E)) peptide: QYFARGSFQFGLSHVLSAAAAFHLYVFCKRLSRGFGIKDDAAAGAPVPYPDPLEPRP
4. DGI-2-40F-3-A12 (not shown: phage gene III coat protein (pCANTAB5E)) peptide: RRTQPAYRSGADDRTSGFYCYVTSALSAGAWMPFLPRRLAAAAGAPVPYPDPLEPRP
5. GNKCFPPHDLFWDPCDQLQSAAAGAPVPYPDPLEPRP (not shown: phage gene III coat protein (pCANTAB5E)) [DGI-2-20R-4-F6]
6. DGI-2-40F-3-B72 (not shown: phage gene III coat protein (pCANTAB5E)) peptide: PKDGAAFKGSDFIQGGQTVMERAPALWWRDGGGQWEAPSTAAAGAPVPYPDPLEPRP

1. 14 OD
2. 11 OD
3. 2.4 OD
4. 4.6 OD
5. 13.2 OD
6. 10.4 OD

Kindly give each listed record's ETAG (OD).
1. FSSTGILLRSGRATAVGHVTAAAGAPVPYPDPLEPRP (not shown: phage gene III coat protein (pCANTAB5E)) [DGI-2-20F-3-A6]
2. TPDRCLIYSSIQCLLEYSARRGSADAAAGAPVPYPDPLEPRP (not shown: phage gene III coat protein (pCANTAB5E)) [DGI-2-20C-3-C65]
3. LSLLSVVVRSMGASAPQRQVAAAGAPVPYPDPLEPRP (not shown: phage gene III coat protein (pCANTAB5E)) [DGI-2-20F-3-A7]
4. DGI-2-40F-3-D1 (not shown: phage gene III coat protein (pCANTAB5E)) peptide: MGQGFHYNRQPYMSHQCYAFTFSTPFLDGDRIPHGVSRGLAAAGAPVPYPDPLEPRP
5. LSVFRPGQFPHVGARGVSRTAAAGAPVPYPDPLEPRP (not shown: phage gene III coat protein (pCANTAB5E)) [DGI-2-20R-4-G32]
6. DGI-2-40F-3-B6 (not shown: phage gene III coat protein (pCANTAB5E)) peptide: QSNVWVLVGVIMQGVWYQRQHYCVYVMLLSDQVSVLLAVAAAAGAPVPYPDPLEPRP

["13.2 OD", "7.4 OD", "7 OD", "4.1 OD", "11 OD", "1.8 OD"]
